Provenance of the data: ChEMBL document CHEMBL1201862

Tested on: HCT-116
test: NCI tumour cell line growth inhibition, 48 h
The source made the active and inactive calls. No stated cut-off is given here; in the data, active = GI50 up to about 1.1 µM and inactive = higher.
Answer with one of the outcomes given here: Y (active), N (inactive)

O=C1Nc2ccccc2/C1=N\c1cccc2ncccc12: N
O=C(CCC(=O)Nc1ccc(Cl)cc1)CC(=O)c1ccc2ccccc2c1: N
O=C(Nc1nc2ncn(CCO)c2c(=S)[nH]1)c1ccccc1: N
CC(=O)/C(=C\Nc1c(C)n(C)n(C)c1=O)C(=O)c1ccccc1: N
CCOC(=O)C(NC(=O)c1ccccc1)(Nc1ccc(S(=O)(=O)Nc2nc(C)cc(C)n2)cc1)C(F)(F)F (configuration not stated): N

Any idea what this test logged for "Clc1ncc(Cl)c(Cl)n1" ?
N

Any idea what this test logged for "C=C1C(=O)O[C@@H]2C[C@@H](C)[C@@H]3C=CC(=O)[C@@]3(C)[C@@H](OC(=O)CCCC(=O)O[C@H]3[C@@H]4C(=C)C(=O)O[C@@H]4C[C@@H](C)[C@@H]4C=CC(=O)[C@]43C)[C@H]12" ?
Y

Any idea what this test logged for CCCCCCCCCC[C@@H](O)[C@@H]1CC[C@H]([C@H]2CC[C@@H]([C@@H](O)CCCCCCCCCC[C@H]3CC(CC(C)=O)C(=O)O3)O2)O1 (some centres not stated) ?
N

Any idea what this test logged for "Cc1cc(OCC(=O)N/N=C/C(Br)=C/c2ccccc2)nc(SCC(=O)N/N=C/C(Br)=C/c2ccccc2)n1" ?
N

Any idea what this test logged for COC(=O)C1=C(OC)C(=P2(c3ccccc3)CC(c3ccccc3)=C2c2ccccc2)C(C(=O)OC)=C1C(=O)OC (configuration not stated) ?
N

Any idea what this test logged for "CC(=O)C1=C(C)NC(=C(C#N)C#N)C(C#N)=C1" ?
N

Any idea what this test logged for "Cc1ccc(N/C(=C(/C(Cl)=C(Cl)Cl)[N+](=O)[O-])n2nnc3ccccc32)cc1" ?
N

Any idea what this test logged for "O=c1ssc(Cl)c1Nc1c(Cl)ssc1=O" ?
N

Any idea what this test logged for "C[C@@]12[Se]c3ccccc3[C@]1(C)[Se]c1ccccc12" ?
N

Any idea what this test logged for "CC1=C(C(=O)NNC(=O)Cc2ccccc2)CC(C(=O)NNC(=O)Cc2ccccc2)=C(C)N1" ?
N

Any idea what this test logged for "Oc1ccc(Oc2cc3c(cc2Oc2ccc(O)cc2)-c2nc-3nc3[nH]c(nc4nc(nc5[nH]c(n2)c2cc(Oc6ccc(O)cc6)c(Oc6ccc(O)cc6)cc52)-c2cc(Oc5ccc(O)cc5)c(Oc5ccc(O)cc5)cc2-4)c2cc(Oc4ccc(O)cc4)c(Oc4ccc(O)cc4)cc32)cc1" ?
N

Any idea what this test logged for COC(=O)C1=C(C(=O)Nc2cccnc2Cl)N(c2ccc(OC)cc2[N+](=O)[O-])C(c2ccc(C)cc2)=CC1c1ccc(OC)cc1OC (configuration not stated) ?
N

---

Tested on: RXF 393
test: NCI tumour cell line growth inhibition, 48 h
Activity calls are given as the source filed them. Cut-off read from the data, not from the text of the source: active = GI50 up to about 1.1 µM and inactive = higher.
Answer with one of the outcomes given here: Y = active, N = inactive

Example cases with answers are listed next.
COC(=O)c1c(O)ccc2c1c1c(n2Cc2ccc(OC)cc2)C(=O)c2ccccc2C1=O: N
ClCCCN1CCN(CCCl)CC1: N
COc1cc2[nH]c(=O)c3cc(C)cc4c(Cl)nc(c1OC)c2c43: N
Nc1ccc2n[se]nc2c1: N
N=c1c2ccccc2sc2nc3ccccc3n12: N

Any idea what this test logged for O=c1[nH]c(=O)n(C2CC(O)C(COP(=O)(O)OC3CC(n4cc(F)c(=O)[nH]c4=O)OC3COP(=O)(O)OC3CC(n4cc(F)c(=O)[nH]c4=O)OC3COP(=O)(O)OC3CC(n4cc(F)c(=O)[nH]c4=O)OC3COP(=O)(O)OC3CC(n4cc(F)c(=O)[nH]c4=O)OC3COP(=O)(O)OC3CC(n4cc(F)c(=O)[nH]c4=O)OC3COP(=O)(O)OC3CC(n4cc(F)c(=O)[nH]c4=O)OC3COP(=O)(O)OC3CC(n4cc(F)c(=O)[nH]c4=O)OC3COP(=O)(O)OC3CC(n4cc(F)c(=O)[nH]c4=O)OC3COP(=O)(O)OC3CC(n4cc(F)c(=O)[nH]c4=O)OC3CO)O2)cc1F (configuration not stated) ?
Y

Any idea what this test logged for "CNC(=O)OCc1c(COC(=O)NC)c(C)n(-c2ccc(Br)cc2)c1C" ?
N
